Experiment: solvent given as SMILES
Settings: in ClC(Cl)Cl
Listed here: items and their measured emission maximum.
OBSERVED PROPERTY: emission maximum (nm)

- STRUCTURE AS SMILES: "Cc1ccc(C(=O)NN2C3=C(CC4=C2CCCC4=O)C(=O)CCC3)cc1"
  NUMERIC READOUT: 438
- STRUCTURE AS SMILES: "COc1ccc(-c2oc3cccc4c5c(-c6ccc(OC)c(OC)c6)/c(=N/S(=O)(=O)C(F)(F)F)oc6cccc(c2c34)c65)cc1OC"
  NUMERIC READOUT: 613
- STRUCTURE AS SMILES: "CC(=O)c1c2c(cc3ccc(N(C)C)cc13)CCC2"
  NUMERIC READOUT: 516
- STRUCTURE AS SMILES: "C#CCNC1=C2C=CC=[N+]2[B-](F)(F)n2cccc21"
  NUMERIC READOUT: 485
- STRUCTURE AS SMILES: "CCCCCCCCCCOc1cc(OCCCCCCCCCC)cc(C2=C3C(C)=CC(/C=C/c4ccc(OC)cc4)=[N+]3[B-](F)(F)n3c(/C=C/c4ccc(OC)cc4)cc(C=Cc4ccc(OC)cc4)c32)c1"
  NUMERIC READOUT: 682
- STRUCTURE AS SMILES: "CN1C(=CC2=C([O-])C(=Cc3oc4ccccc4[n+]3C)C2=C(C#N)C#N)C(C)(C)c2ccccc21"
  NUMERIC READOUT: 673
- STRUCTURE AS SMILES: "COC(=O)c1ccc(C2=C3C(C)=CC(C)=[N+]3[B-](F)(F)n3c(/C=C/c4c[nH]cn4)cc(C)c32)cc1"
  NUMERIC READOUT: 589
- STRUCTURE AS SMILES: "c1ccc(-n2c(-c3ccc(-c4ccc(-c5ccc(-c6nc7c8ccccc8c8ccccc8c7n6-c6ccccc6)cc5)cc4)cc3)nc3ccccc32)cc1"
  NUMERIC READOUT: 427
